Give measured electrical conductivity for each item. Keep answers brief.
test.settings: 428.15 K; 101.33 kPa; Liquid; Alternating current cell with electrodes
Reply numerically in S/m, unit not repeated.

Request: I would be grateful if you could share the reported electrical conductivity for CCCCCCCC[n+]1ccn(C)c1.F[B-](F)(F)F [1-methyl-3-octylimidazolium tetrafluoroborate] .
Result: 2.75

Request: Try this compound next: CCCCCCn1cc[n+](C)c1.F[B-](F)(F)F [1-hexyl-3-methylimidazolium tetrafluoroborate]
Result: 4.31

Request: Check CCn1cc[n+](C)c1.F[B-](F)(F)F [1-ethyl-3-methylimidazolium tetrafluoroborate] too.
Result: 14.2

Request: Same question for CCCCn1cc[n+](C)c1.F[B-](F)(F)F [1-butyl-3-methylimidazolium tetrafluoroborate] please.
Result: 7.45

Every entry's value here was drawn from the NIST ThermoML archive (doi:10.1021/je900789j).
